test: qHTS assay to test for compound auto fluorescence at 590 nm (red) in HepG2 cells (AID 720674); conditions: HepG2 autofluorescence, red 540/590 nm, 1 h; series mostly up to 46 µM
Calls of active or inactive are those of the source. Calls come from the whole dose curve; as a rule, active = well fitted curve in the direction sought with a large enough effect in the repeat runs; inconclusive = weak or mixed curves; inactive = flat fitted curve, though single readings scatter. Starred links: 1 amine or outer side, 2 acyl side, 3 side chain; linkers in the order of their positions; H or OH if unused. Positions of bridges follow the written chain, without caps; N, C: chain ends. Non-standard residues stand in square brackets, D forms with d. Residues, ends and D or L forms follow the SMILES beside them. *: point of attachment. X5 = NC1=N[C@@H]([C@H](N[*:1])C(=O)[*:2])C[C@H](O)N1; ΔAla(Z-3-ureido) = NC(=O)N/C=C(\N)C(=O)O; β3hOrn = NCCC[C@H](N)CC(=O)*; Dap = NC[C@H](N)C(=O)O
property_measured: outcome

compound	outcome
c1ccc2c(CCC3CCNCC3)c[nH]c2c1	inactive
NCCC[C@H](N)CC(=O)N[C@H]1CNC(=O)[C@H]([C@H]2C[C@H](O)NC(N)=N2)NC(=O)/C(=C/NC(N)=O)NC(=O)[C@H](CO)NC(=O)[C@H](CO)NC1=O (β3hOrn-[Dap]SS[ΔAla(Z-3-ureido)][X5]; lactam 1-C)	inactive
CCCCC[C@H](O)/C=C/[C@@H]1[C@H]2C/C(=C/CCCC(=O)O)O[C@H]2C[C@H]1O	inactive
CN1c2c(nc(N)[nH]c2=O)NCC1CNc1ccc(C(=O)NC(CCC(=O)O)C(=O)O)cc1 (stereo not drawn)	inactive
CC1(C)S[C@@H]2[C@H](NC(=O)[C@H](NC(=O)N3CCN(S(C)(=O)=O)C3=O)c3ccccc3)C(=O)N2[C@H]1C(=O)O	inactive
CO/N=C(\C(=O)N[C@@H]1C(=O)N2C(C(=O)O)=C(CSC(=O)c3ccco3)CS[C@H]12)c1csc(N)n1	inactive
Cn1nnnc1SCC1=C(C(=O)O)N2C(=O)[C@@H](NC(=O)[C@H](O)c3ccccc3)[C@H]2SC1	inactive

Which outcome value belongs to CC(C(=O)O)c1ccc(C2CCCCC2)c2ccccc12 (stereo not drawn) ?
inactive
